Ref: patent US20260132182A1

Listing of entries alongside the reported Human GLP-1R potency [EC50 (pM)].
# system: human GLP-1 receptor (human, UniProt P43220 24-463)
# assay text: cell-based or functional assay
Starred links: 1 amine or outer side, 2 acyl side, 3 side chain; linkers in the order of their positions; H or OH if unused. Non-standard residues stand in square brackets, D forms with d. Groups on a side chain read outwards from the residue. *: point of attachment. C20 diacid = O=C(O)CCCCCCCCCCCCCCCCCCC(=O)*; C18 diacid = O=C(O)CCCCCCCCCCCCCCCCC(=O)*; C16 diacid = O=C(O)CCCCCCCCCCCCCCC(=O)*; γGlu = O=C(O)[C@H](CCC(=O)[*:2])N[*:1]; εLys = N[C@@H](CCCCN[*:1])C(=O)[*:2]; AEEA = NCCOCCOCC(=O)O; Aib = CC(C)(N)C(=O)O
Field format: number, assumed pM, no unit text.

Example entries and their recorded answers appear below.
Compound 0575 (peptide) peptide: H[Aib]EGTFTSDVSK([AEEA-AEEA-γGlu-C16 diacid])YLEEQAARK([AEEA-AEEA-γGlu-C16 diacid])FIAWLVRGRQEGGGGGASELSTAALGRLSAELHELATLPRTETGSGSP-NH2 : 5.6
Compound 0131 (peptide) peptide: H[Aib]EGTFTSDVSSYLEEQAARK([γGlu-C18 diacid])FIAWLVRGRK([γGlu-C18 diacid])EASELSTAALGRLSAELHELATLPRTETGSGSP-NH2 : 16.1
Compound 0010 (peptide) peptide: H[Aib]EGTFTSDVSSYLEGQAAREFIAWLVRGRGEGEGEK([AEEA-AEEA-γGlu-C18 diacid])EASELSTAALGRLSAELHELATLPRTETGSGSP-NH2 : 5.4

Next binder, please.
Reported Human GLP-1R potency [EC50 (pM)] ( Compound 0552 (peptide) peptide: H[Aib]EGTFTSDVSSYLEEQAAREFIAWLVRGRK([εLys-AEEA-AEEA-γGlu-C20 diacid])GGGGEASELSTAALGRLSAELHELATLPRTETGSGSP-NH2 ) = 4.7
